Measured growth by item
# System: OVCAR-4 ovarian
# assay_details: NCI-60 one-dose screen, 48 h (100 = growth as untreated, 0 = no growth, -100 = all killed)
# conditions_used: 10 µM unless noted
This is part of a sample that, as a whole, favours compounds with a hit. Of some 83,000 tested, about 20% had one in any assay. The source made the active and inactive calls. The calls were made as follows: active = growth percent below 10; inactive = the rest.

Use these answered entries as a reference point.
INSERT INTO results (compound, reported_result) VALUES
  ('OCCn1cc(-c2nc(-c3c[nH]c4ncccc34)cs2)c2ccccc21', '51.7% (inactive)'),
  ('CCC(=O)Oc1ccc(-c2ccccc2)cc1Br', '105% (inactive)'),
  ('COC(=O)/C=C1/SC(=Nc2cccc(OC)c2)N(CCc2c[nH]c3ccc(O)cc23)C1=O', '49.4% (inactive)'),
  ('CCSc1nc2scc(C)c2c(=O)[nH]1', '96.7% (inactive)'),
  ('COc1ccc(-c2noc(C(=O)O)c2-c2cc(OC)c(OC)c(OC)c2)cc1', '76.7% (inactive)');

Consider the compound COc1ccc(/C=N/C2=C(C#N)C(c3ccccc3)c3ccc4ccccc4c3O2)cc1 (configuration not stated) and give its measured growth.
56.6% (inactive)

Okay, and NS(=O)(=O)c1ccccc1NC(=O)Nc1nc2ccccc2s1 ?
93.3% (inactive)

###

# System: HOP-92 NSCLC
# assay_details: NCI-60 one-dose screen, 48 h
# conditions_used: 10 µM unless noted
Compounds without any hit were thinned out: in the full panel of roughly 83,000, 20% have a hit. The source made the active and inactive calls. Rule for the calls: active = growth percent below 10; inactive = the rest.
Would you mind answering with one of these outcomes? true (1) for active, false (0) for inactive

INSERT INTO measurements (compound, system_tested, group_label) VALUES
  ('CCO/C=N/C1=C(C#N)C(c2ccc(Cl)cc2)c2sc3c(F)cccc3c2O1 (stereo not drawn)', 'HOP-92 NSCLC', 'false (0)'),
  ('C=CCN=c1sc2c(n1NC(=O)c1cc3ccc1CCc1ccc(cc1)CC3)C(=O)c1ccccc1C2=O', 'HOP-92 NSCLC', 'false (0)');

Consider the additional compound presented here.
Call for entry CN1CCc2nc3sc(C(N)=O)c(N)c3c(-c3cccs3)c2C1 :
true (1)

###

Measured growth by item
# System: SW-620 colon
# assay_details: NCI-60 one-dose screen, 48 h (100 = growth as untreated, 0 = no growth, -100 = all killed)
# conditions_used: 10 µM unless noted
Compounds without any hit were thinned out: in the full panel of roughly 83,000, 20% have a hit.
Reply numerically in %, unit not repeated.

Use these answered entries as a reference point.
INSERT INTO assay_data (molecule, system_tested, reported_result) VALUES
  ('COc1ccccc1N1CCCCC1', 'SW-620 colon', 99.9),
  ('NC(=O)c1cccc(-n2ccc3cc(NC(=O)c4ccc(N5CCOCC5)c(C(F)(F)F)c4)ccc32)n1', 'SW-620 colon', 68.2),
  ('NC(=O)CSc1oc(-c2ccccc2)nc1S(=O)(=O)c1ccc(Br)cc1', 'SW-620 colon', 94.4),
  ('Cc1cc(C(=O)Nc2ncc(Cc3cccc(C(F)(F)F)c3)s2)c2ccccc2n1', 'SW-620 colon', 17.3),
  ('COc1cc(-c2cncn2-c2ccc(-c3nc4ccc(F)cc4s3)cc2)ccc1F', 'SW-620 colon', 54.3);

With those in mind, consider the next molecule.
Consider the molecule Cc1ccc(C(=O)c2ccc(CC(=O)N/N=C/c3ccccc3O)n2C)cc1 and give its measured growth.
89.6
